assay: S. cerevisiae RM11-1a growth modifiers, primary screen, strain RM11-1a, OD600, basal, 24 h (AID 1177); conditions: OD600, 24 h, higher = more signal, called active from +8 up or from −8 down;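 note: cultures grown under basal conditions with no added stressor; test concentration not given here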
measuredProperty: z-score

> print(dat)
                                   compound  reportedmeasurement
1  COc1ccc([Si](C)(C)[C@@H]2[C@@H](CCO)O[C@]3(C(=O)N(Cc4ccc(N5C(=O)COc6ccccc65)cc4)c4ccccc43)[C@H]2C)cc1                 4.73
2  O=C1c2ccccc2[C@@]2(Cc3ccccc3N(CCN3CCOCC3)C2=O)[C@H](c2ccc(CO)cc2)N1Cc1ccccc1                0.167
3  COC(=O)[C@@]1(Cc2ccccc2)[C@H]2c3cc(C(=O)N(C)C)n(CCSCCO)c3C[C@H]2CN1C(=O)c1ccccc1                0.152
4  CN(C)C(=O)[C@@]1(Cc2ccccc2CN=[N+]=[N-])N=C(c2ccc(OCCCO)cc2)O[C@H]1c1ccccc1                 1.39
5  CC(C)(C)OC(=O)CC[C@]1(C(=O)O)N=C(c2ccc(OCCCO)cc2)O[C@H]1c1ccccc1N=[N+]=[N-]               -0.715
6  O=C1OCC=C[C@H]2OC34C=CCN(CCN5CCOCC5)C(=O)[C@H]3N(CCCO)C(=O)[C@@H]4[C@@H]12 (stereo partly drawn)                0.451
7  CN1C(=O)C2C=CC(C(O)C3=C[C@H]4C[C@@H](C3)C4(C)C)N(Nc3ccccc3)C2C1=O (stereo partly drawn)                0.602
8  [N-]=[N+]=Nc1ccccc1[C@H]1OC(c2ccc(OCCCO)cc2)=N[C@@]1(Cc1ccccc1)C(=O)O                0.222

Values were extracted from PubChem BioAssay.
